Tested on: Plasmodium falciparum NF54 gametocytes
Assay: viability index relative to DMSO control (fraction); higher = less gametocyte killing
Details: gametocyte stage: Stage II viability index; 12.5 µM; incubation time: 72 h
metricName: viability index
Just the number.

Take a look at these entries with their results.
Cc1ccccc1OCCSc1nc2ccc(NC(=O)c3ccccc3)cc2s1    0.863
COc1ccc(CNC2CCN(c3ccc(NC(=O)c4cccc(Cl)c4)cc3)CC2)cc1OC    0.532
Cc1ccc(Nc2nc(N)c3ccccc3n2)cc1Cl    0.49

Report measured viability index; entry is `CCn1c2c(c(=N)c3c1CCC3)CCCC2`
0.795

====

System: Plasmodium falciparum NF54 gametocytes
Assay: viability index relative to DMSO control (fraction); higher = less gametocyte killing
Details: gametocyte stage: Stage I viability index; 12.5 µM; incubation time: 72 h
The label label 1 is reserved for viability index strictly under 0.4; label 0 covers values equal to or above it.

O=C(Nc1cccc(-c2nc3ccccc3[nH]2)c1)c1cccc(NC(=O)c2ccco2)c1    label 0
CCOc1ccc(Nc2c3ccccc3nc3ccccc23)cc1    label 1

viability index strictly < 0.4 for this compound? CCOC(=O)C1=C(C)N=c2sc(=Cc3ccccc3O)c(=O)n2C1c1ccc(OC)c2ccccc12 (stereo unspecified)
label 1

viability index strictly < 0.4 for this compound? `CCN(CC)c1cc(C)c2cc(NC(=O)c3cccc(OC)c3)ccc2n1`
label 1

viability index strictly < 0.4 for this compound? `Cc1nc2ccccc2c(O)c1CC=C(Cl)Cl`
label 0

====

Tested on: Plasmodium falciparum NF54 gametocytes
Assay: viability index relative to DMSO control (fraction); higher = less gametocyte killing
Settings: gametocyte stage: Stage I viability index; 12.5 µM; incubation time: 72 h
Reported viability index values for the following compounds.
Just the number.

COc1cccc(NC(=O)Cn2c(C)c(C#N)c3ccccc32)c1    0.0586
COc1cccc(C2(C)Nc3ccccc3-c3nc4ccccc4n32)c1 (stereo unspecified)    0.113
CCOc1ccc(Nc2ccnc3cc(Cl)ccc23)cc1    0.0699

Report measured viability index; entry is `Oc1c(CN2CCN(c3ccccc3F)CC2)cc(Br)c2cccnc12`
0.0376

Report measured viability index; entry is `CCn1nc(-c2ccc(C(=O)OC)cc2)nc2c(=O)n(C)c(=O)nc1-2`
0.15

Report measured viability index; entry is CC(C)(C)CC(C)(C)NCC(O)COc1ccc2c(c1)CCC2 (stereo unspecified)
0.221

====

Reported viability index values for the following molecules.
System: Plasmodium falciparum NF54 gametocytes
Assay: viability index relative to DMSO control (fraction); higher = less gametocyte killing
Details: gametocyte stage: Stage III viability index; 12.5 µM; incubation time: 72 h
Just the number.

Cc1ccc(N2C3c4ccccc4N(S(=O)(=O)c4ccc(C)cc4)C2c2ccccc2N3S(=O)(=O)c2ccc(C)cc2)cc1    0.928
COc1cccc(C2(C)Nc3ccccc3-c3nc4ccccc4n32)c1 (configuration not stated)    0.198
Cc1cc(N(C)C)nc(Nc2ccc(NC(=O)Nc3ccccc3)cc2)n1    0.138
COc1ccc(-c2cc3c(nn2)-c2ccccc2C3=O)cc1    0.735
O=C(Nc1cccc(C2=NCCN2)c1)Nc1cccc(C2=NCCN2)c1    0.773
O=C1c2ccccc2C2=Nc3ccccc3SC(c3cccc(F)c3)C12 (configuration not stated)    0.868
O=C(Nc1ccc(-c2nc3ccccc3[nH]2)cc1)c1ccc(Cl)c(Cl)c1    0.894
CCOC(=O)c1cnc2c(C)cccc2c1Nc1ccc(C(C)=O)cc1    1.06
O=[N+]([O-])c1ccc(C=NNc2nc3ccccc3[nH]2)cc1    0.911
CCOc1ccc(C=Cc2nc(=O)c3ccccc3o2)cc1    0.85

Report measured viability index; entry is Cc1cc(NC(=O)C2c3ccccc3C(=O)N(CC(C)C)C2c2cccs2)no1 (configuration not stated)
0.0636

Report measured viability index; entry is CC1CC(C)CN(C(=O)c2ccc(Cl)cc2Cl)C1 (configuration not stated)
0.962

Report measured viability index; entry is `CN(C)c1ccc(N2C(N)=NC(N)=NC2(C)C)cc1`
1.04

Report measured viability index; entry is `Cc1cccc(Nc2nc(N)c3ccccc3n2)c1`
0.948

Report measured viability index; entry is `Cc1ccc(Cl)cc1N1CCN(CCCNC(=O)C2CCN(c3nc4ccccc4[nH]3)CC2)CC1`
0.628

Report measured viability index; entry is `CCCc1c(C)nc2ccc(Br)cc2c1O`
0.893

The values you see were collected from the supplement of paper PMC4723716.
